- Test system: SK-MEL-5 melanoma
- method.summary: NCI-60 one-dose screen, 48 h (100 = growth as untreated, 0 = no growth, -100 = all killed)
- measurement.setup: 10 µM
The panel holds about 83,000 compounds, 20% with a hit somewhere; the sample as a whole holds those more often.
This listing pairs molecules with measured growth.
experimental.endpoint: growth (%)

{"mol": "CN(C)CCN1C(=O)c2cccc3cc(N)cc(c23)C1=O", "experimental.endpoint": "growth", "measured.number": 8.79}
{"mol": "COc1ccc(Cn2c(C(N)=O)cc3c2-c2nc(N)ncc2CCC3)cc1", "experimental.endpoint": "growth", "measured.number": 98.7}
{"mol": "CC(C)(Cl)CCC1=C(Cl)C(=O)c2ccccc2C1=O", "experimental.endpoint": "growth", "measured.number": -34.8}
{"mol": "O=C(Nc1cccc(-n2cc(-c3ccncc3)c(-c3ccc(O)c(Cl)c3)n2)c1)Nc1ccc(Cl)c(Cl)c1", "experimental.endpoint": "growth", "measured.number": -47}
